# Tested on: 883617-216-R-J1-PDC tumor spheroids, viability
# measurement.notes: Anticancer human tumor 883617-216-R-J1-PDC patient-derived bladder carcinoma cell line growth inhibition [PI3K]
# condition.info: second compound 0.1 µM; first compound 1 µM; hits give low values; spheroids with HUVEC and MSC
# strict inequality: viability, T/C < 70% yields yes (1), everything else yields no (0)

CNC(=O)c1ccc(N2C(=S)N(c3ccc(C#N)c(C(F)(F)F)c3)C(=O)C2(C)C)cc1F + CC(Nc1ncnc2nc[nH]c12)c1cc2cccc(Cl)c2c(=O)n1-c1ccccc1    no (0)
C[C@@H](NC(=O)c1ncnc(N)c1Cl)c1ncc(C(=O)Nc2cc(C(F)(F)F)c(Cl)cn2)s1 + CC(Nc1ccc2c(c1)OCCn1cc(N3C(=O)OCC3C(F)F)nc1-2)C(N)=O    yes (1)
CCN1CCN(Cc2ccc(Nc3ncc(F)c(-c4cc(F)c5nc(C)n(C(C)C)c5c4)n3)nc2)CC1 + COc1c(OCCCN2CCOCC2)ccc2c3n(c(=NC(=O)c4cnc(N)nc4)nc12)CCN3    yes (1)
CNC(=O)c1ccc(N2C(=S)N(c3ccc(C#N)c(C(F)(F)F)c3)C(=O)C2(C)C)cc1F + Cc1nc(NC(=O)N2CCCC2C(N)=O)sc1-c1ccnc(C(C)(C)C(F)(F)F)c1    no (0)

Please let me know if CC1(C)CCC(Nc2ncc(C(F)(F)F)c(-c3c[nH]c4c(P(C)(C)=O)c(C#N)ccc34)n2)CN1 (stereo not given) + COc1c(OCCCN2CCOCC2)ccc2c3n(c(=NC(=O)c4cnc(N)nc4)nc12)CCN3 shows viability, T/C below 70%.
yes (1)

* * *

Attribute: viability, T/C
# System: 883617-216-R-J1-PDC tumor spheroids, viability
# measurement.notes: Anticancer human tumor 883617-216-R-J1-PDC cell line growth inhibition [PI3K];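 further: spheroids exposed to agents for 7 days before the viability read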
# condition.info: second compound 0.1 µM; first compound 1 µM; hits give low values; spheroids with HUVEC and MSC

The examples below pair each entry with its known result.
C#Cc1c(F)ccc2cc(O)cc(-c3ncc4c(N5CC6CCC(C5)N6)nc(OCC56CCCN5CC(F)C6)nc4c3F)c12 (stereo not given) + COc1c(OCCCN2CCOCC2)ccc2c3n(c(=NC(=O)c4cnc(N)nc4)nc12)CCN3    15.6%
C=CC(=O)N1CCN(c2nc(=O)n(-c3c(C)ccnc3C(C)C)c3nc(-c4c(O)cccc4F)c(F)cc23)C(C)C1 (stereo not given) + COc1c(OCCCN2CCOCC2)ccc2c3n(c(=NC(=O)c4cnc(N)nc4)nc12)CCN3    8.64%
C[C@@H](NC(=O)c1ncnc(N)c1Cl)c1ncc(C(=O)Nc2cc(C(F)(F)F)c(Cl)cn2)s1 + Cc1nc(NC(=O)N2CCCC2C(N)=O)sc1-c1ccnc(C(C)(C)C(F)(F)F)c1    73%
Cn1ncc(Cl)c1-c1cc(C(=O)NC(CN)Cc2cccc(F)c2)sc1Cl (stereo not given) + COc1c(OCCCN2CCOCC2)ccc2c3n(c(=NC(=O)c4cnc(N)nc4)nc12)CCN3    8.94%

Kindly review the next compound as well.
# viability, T/C lookup, item CC1(C)CCC(CN2CCN(c3ccc(C(=O)NS(=O)(=O)c4ccc(NCC5CCOCC5)c([N+](=O)[O-])c4)c(Oc4cnc5[nH]ccc5c4)c3)CC2)=C(c2ccc(Cl)cc2)C1 + COc1c(OCCCN2CCOCC2)ccc2c3n(c(=NC(=O)c4cnc(N)nc4)nc12)CCN3
17.8%

* * *

# Test system: 883617-216-R-J1-PDC tumor spheroids, viability
# measurement.notes: Anticancer human tumor 883617-216-R-J1-PDC cell line growth inhibition [PI3K]; active = viability on the fitted dose curve at most 10% of control; inactive = the rest;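 further: spheroids exposed to agents for 7 days before the viability read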
# condition.info: second compound 0.316 µM; first compound 0.0316 µM; spheroids with HUVEC and MSC
# From the text: Combinatorial screen of targeted agents with the PI3K inhibitors inavolisib, alpelisib, duvelisib, and copanlisib in multi-cell type tumor spheroids A high-throughput screen of multi-cell type tumor spheroids was designed to identify active combinations of targeted small molecules and PI3K pathway inhibitors. […] Compounds. […] If the clinical Cmax for an agent had not been determined, the highest concentration tested was 10 microM. […]
Classes to choose from: active, inactive

Some entries whose results are on file:
Cn1ncnc1[C@H]1c2n[nH]c(=O)c3cc(F)cc(c23)N[C@@H]1c1ccc(F)cc1 + Cc1nc(NC(=O)N2CCCC2C(N)=O)sc1-c1ccnc(C(C)(C)C(F)(F)F)c1    inactive
CC(Cn1ccc(-c2ccc(C#N)c(Cl)c2)n1)NC(=O)c1cc(C(C)O)[nH]n1 (centres undefined) + CC(Nc1ccc2c(c1)OCCn1cc(N3C(=O)OCC3C(F)F)nc1-2)C(N)=O    inactive
C=CC(=O)N1CCN(c2nc(=O)n(-c3c(C)ccnc3C(C)C)c3nc(-c4c(O)cccc4F)c(F)cc23)C(C)C1 (centres undefined) + COc1c(OCCCN2CCOCC2)ccc2c3n(c(=NC(=O)c4cnc(N)nc4)nc12)CCN3    active

// switching to the query compound
Write down the call the test reported for this compound. Item: CC(C)n1nc(-c2ccc3oc(N)nc3c2)c2c(N)ncnc21 + CC(Nc1ncnc2nc[nH]c12)c1cc2cccc(Cl)c2c(=O)n1-c1ccccc1
inactive

* * *

Some compounds, each annotated with its measured viability, T/C.
# System: 883617-216-R-J1-PDC tumor spheroids, viability
# measurement.notes: Anticancer human tumor 883617-216-R-J1-PDC cell line growth inhibition [PI3K];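 further: spheroids exposed to agents for 7 days before the viability read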
# condition.info: second compound 3.16 µM; first compound 0.000316 µM; hits give low values; spheroids with HUVEC and MSC
# Excerpt: Combinatorial screen of targeted agents with the PI3K inhibitors inavolisib, alpelisib, duvelisib, and copanlisib in multi-cell type tumor spheroids A high-throughput screen of multi-cell type tumor spheroids was designed to identify active combinations of targeted small molecules and PI3K pathway inhibitors. […] Compounds. […] If the clinical Cmax for an agent had not been determined, the highest concentration tested was 10 microM. […]
Just the number in %, nothing appended.

Take a look at these entries with their results.
CC(C)n1nc(-c2ccc3oc(N)nc3c2)c2c(N)ncnc21 + CC(Nc1ncnc2nc[nH]c12)c1cc2cccc(Cl)c2c(=O)n1-c1ccccc1    83.6
CC(=O)c1c(C)c2cnc(Nc3ccc(N4CCNCC4)cn3)nc2n(C2CCCC2)c1=O + CC(Nc1ncnc2nc[nH]c12)c1cc2cccc(Cl)c2c(=O)n1-c1ccccc1    76
CC(=O)c1c(C)c2cnc(Nc3ccc(N4CCNCC4)cn3)nc2n(C2CCCC2)c1=O + Cc1nc(NC(=O)N2CCCC2C(N)=O)sc1-c1ccnc(C(C)(C)C(F)(F)F)c1    12.9
Cn1ncnc1[C@H]1c2n[nH]c(=O)c3cc(F)cc(c23)N[C@@H]1c1ccc(F)cc1 + CC(Nc1ncnc2nc[nH]c12)c1cc2cccc(Cl)c2c(=O)n1-c1ccccc1    81.1
CC(C)n1nc(-c2ccc3oc(N)nc3c2)c2c(N)ncnc21 + Cc1nc(NC(=O)N2CCCC2C(N)=O)sc1-c1ccnc(C(C)(C)C(F)(F)F)c1    16

Proceeding to the next compound to report its viability, T/C.
Provide value of viability, T/C for this record tested with 883617-216-R-J1-PDC tumor spheroids, viability: Cn1ncnc1[C@H]1c2n[nH]c(=O)c3cc(F)cc(c23)N[C@@H]1c1ccc(F)cc1 + Cc1nc(NC(=O)N2CCCC2C(N)=O)sc1-c1ccnc(C(C)(C)C(F)(F)F)c1
16

* * *

# Tested on: 883617-216-R-J1-PDC tumor spheroids, viability
# measurement.notes: Anticancer human tumor 883617-216-R-J1-PDC cell line growth inhibition [PI3K]; active = viability on the fitted dose curve at most 10% of control; inactive = the rest;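 further: spheroids exposed to agents for 7 days before the viability read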
# condition.info: second compound 3.16 µM; first compound 1 µM; spheroids with HUVEC and MSC
Use one of these outcomes when replying: 1.0 for active, 0.0 for inactive

CCN1CCN(Cc2ccc(Nc3ncc(F)c(-c4cc(F)c5nc(C)n(C(C)C)c5c4)n3)nc2)CC1 + CC(Nc1ncnc2nc[nH]c12)c1cc2cccc(Cl)c2c(=O)n1-c1ccccc1    0.0
CC(C)NCC(C(=O)N1CCN(c2ncnc3c2C(C)CC3O)CC1)c1ccc(Cl)cc1 (stereo unspecified) + Cc1nc(NC(=O)N2CCCC2C(N)=O)sc1-c1ccnc(C(C)(C)C(F)(F)F)c1    1.0
Cn1ncc(Cl)c1-c1cc(C(=O)NC(CN)Cc2cccc(F)c2)sc1Cl (stereo unspecified) + CC(Nc1ncnc2nc[nH]c12)c1cc2cccc(Cl)c2c(=O)n1-c1ccccc1    0.0

--- query ---
Assay result, entry C=CC(=O)N1CCN(c2nc(=O)n(-c3c(C)ccnc3C(C)C)c3nc(-c4c(O)cccc4F)c(F)cc23)C(C)C1 (stereo unspecified) + CC(Nc1ncnc2nc[nH]c12)c1cc2cccc(Cl)c2c(=O)n1-c1ccccc1 — outcome?
0.0

* * *

# Tested on: 883617-216-R-J1-PDC tumor spheroids, viability
# measurement.notes: Anticancer human tumor 883617-216-R-J1-PDC cell line growth inhibition [PI3K]; active means viability on the fitted dose curve at most 10% of control; inactive means the rest;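 further: spheroids exposed to agents for 7 days before the viability read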
# condition.info: second compound 10 µM; first compound 0.00316 µM; spheroids with HUVEC and MSC
Form entry, call: pick from true for active, false for inactive

Here's what some known entries look like.
Cn1ncnc1[C@H]1c2n[nH]c(=O)c3cc(F)cc(c23)N[C@@H]1c1ccc(F)cc1 + Cc1nc(NC(=O)N2CCCC2C(N)=O)sc1-c1ccnc(C(C)(C)C(F)(F)F)c1    true
CCN1CCN(Cc2ccc(Nc3ncc(F)c(-c4cc(F)c5nc(C)n(C(C)C)c5c4)n3)nc2)CC1 + CC(Nc1ncnc2nc[nH]c12)c1cc2cccc(Cl)c2c(=O)n1-c1ccccc1    false

Read the next record carefully.
What did the test return for CC(C)n1nc(-c2ccc3oc(N)nc3c2)c2c(N)ncnc21 + Cc1nc(NC(=O)N2CCCC2C(N)=O)sc1-c1ccnc(C(C)(C)C(F)(F)F)c1 ?
true

Just for reference, PubChem BioAssay AID1963973 is where these values come from.
